Tested on: T47D (PI3Kα-H1047R) cell line
Experiment: HTRF phospho-AKT(S473) cell assay in T47D cells
Type: cell-based, human
Conditions: Homo sapiens; HTRF phospho-AKT(S473), T47D (PI3Kα-H1047R) cells, 2 hours compound incubation
pIC50: −log10 of the molar value.
readout: pIC50

Cc1cc([C@@H](C)Nc2ccc(Cl)nc2C(=O)NS(C)(=O)=O)c2nc(N3CCC[C@@H](c4nccc(C)n4)C3)n(C)c(=O)c2c1 (mixture of isomers) [Compound 633] | 6.30 to 6.60
Cc1cc([C@@H](C)Nc2ccc(Cl)nc2C(=O)NS(C)(=O)=O)c2nc(N3CCC4(CCOCC4)CC3)n(C)c(=O)c2c1 [Compound 690] | > 6.60
Cc1cc([C@@H](C)Nc2ccc(Cl)nc2C(=O)NS(C)(=O)=O)c2nc(N3CC[C@@H](c4ccnc(C)n4)C3)n(C)c(=O)c2c1 (relative stereo) [Compound 600] | 6.30 to 6.60
Cc1cc([C@@H](C)Nc2ccc(Cl)nc2C(=O)NS(C)(=O)=O)c2nc(N3C[C@H]4C[C@@H]3CN4c3nc(C)ncc3F)n(C)c(=O)c2c1 [Compound 605] | 6.30 to 6.60
Cc1cc([C@@H](C)Nc2ccc(Cl)nc2C(=O)NS(C)(=O)=O)c2nc(N3C[C@@H]4[C@H](C3)[C@H]4c3cn(C(C)C)nn3)n(C)c(=O)c2c1 [Compound 528] | > 6.60
